- Subject of test: Mitogen-activated protein kinase kinase kinase kinase 5 (Homo sapiens, UniProt Q9Y4K4)
- Sequence (Q9Y4K4 whole entry, looked up, the tested form may be a part): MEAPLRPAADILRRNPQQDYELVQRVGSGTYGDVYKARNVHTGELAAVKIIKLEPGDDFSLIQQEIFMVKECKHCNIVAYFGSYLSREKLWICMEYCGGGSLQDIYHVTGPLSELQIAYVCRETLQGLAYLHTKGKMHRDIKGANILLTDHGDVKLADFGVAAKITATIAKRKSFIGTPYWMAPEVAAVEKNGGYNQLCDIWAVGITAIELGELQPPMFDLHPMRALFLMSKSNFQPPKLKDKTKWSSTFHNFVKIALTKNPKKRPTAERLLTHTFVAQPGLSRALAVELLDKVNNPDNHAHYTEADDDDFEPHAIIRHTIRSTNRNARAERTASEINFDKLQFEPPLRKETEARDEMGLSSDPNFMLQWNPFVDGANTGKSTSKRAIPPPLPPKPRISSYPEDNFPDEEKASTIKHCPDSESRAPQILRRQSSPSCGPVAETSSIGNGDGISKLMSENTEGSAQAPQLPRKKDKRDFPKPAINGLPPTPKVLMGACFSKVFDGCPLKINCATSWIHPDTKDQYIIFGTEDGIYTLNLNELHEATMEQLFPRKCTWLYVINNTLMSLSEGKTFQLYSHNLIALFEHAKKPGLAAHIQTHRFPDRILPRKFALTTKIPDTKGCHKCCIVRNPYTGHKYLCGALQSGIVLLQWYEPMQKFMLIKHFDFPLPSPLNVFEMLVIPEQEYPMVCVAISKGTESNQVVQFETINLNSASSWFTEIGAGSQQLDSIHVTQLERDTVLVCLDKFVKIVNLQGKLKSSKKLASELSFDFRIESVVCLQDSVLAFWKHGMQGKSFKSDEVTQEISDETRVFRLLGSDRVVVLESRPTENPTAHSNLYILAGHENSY
- Measurement description: Binding affinity to wild-type human partial length MAP4K5 (M1 to P297 residues) expressed in bacterial expression system assessed as residual binding level at 100 nM by Kinomescan method relative to control
Mark each entry fulfilled if its Activity sits below 30%, and not fulfilled for all others.

# count of solved cases: 4
smiles_structure=CCCS(=O)(=O)Nc1ccc(F)c(C(=O)c2n[nH]c3ncc(-c4ccc(N)cc4)cc23)c1F assigned_category=fulfilled
smiles_structure=CCCS(=O)(=O)Nc1ccc(F)c(C(=O)c2n[nH]c3ncc(-c4cccc(OC)c4)cc23)c1F assigned_category=fulfilled
smiles_structure=CCCS(=O)(=O)Nc1ccc(F)c(C(=O)c2n[nH]c3ncc(-c4ccc(C(C)C)cc4)cc23)c1F assigned_category="not fulfilled"
smiles_structure=CCCS(=O)(=O)Nc1ccc(F)c(C(=O)c2n[nH]c3ncc(-c4ccc(OC)cc4)cc23)c1F assigned_category=fulfilled

*Q* Problem: For the compound Nc1ccc(-c2cnc3[nH]nc(C(=O)c4c(F)ccc(NS(=O)(=O)Cc5ccccc5)c4F)c3c2)cc1 , is Activity under 30%?
*A* fulfilled

---

- Subject of test: Mitogen-activated protein kinase kinase kinase 20 (Homo sapiens, UniProt Q9NYL2)
- Measurement description: Binding affinity to wild-type human partial length ZAK (M1 to L331 residues) expressed in bacterial expression system by Kinomescan method
- Sequence (Q9NYL2 whole entry, the tested form may be a part): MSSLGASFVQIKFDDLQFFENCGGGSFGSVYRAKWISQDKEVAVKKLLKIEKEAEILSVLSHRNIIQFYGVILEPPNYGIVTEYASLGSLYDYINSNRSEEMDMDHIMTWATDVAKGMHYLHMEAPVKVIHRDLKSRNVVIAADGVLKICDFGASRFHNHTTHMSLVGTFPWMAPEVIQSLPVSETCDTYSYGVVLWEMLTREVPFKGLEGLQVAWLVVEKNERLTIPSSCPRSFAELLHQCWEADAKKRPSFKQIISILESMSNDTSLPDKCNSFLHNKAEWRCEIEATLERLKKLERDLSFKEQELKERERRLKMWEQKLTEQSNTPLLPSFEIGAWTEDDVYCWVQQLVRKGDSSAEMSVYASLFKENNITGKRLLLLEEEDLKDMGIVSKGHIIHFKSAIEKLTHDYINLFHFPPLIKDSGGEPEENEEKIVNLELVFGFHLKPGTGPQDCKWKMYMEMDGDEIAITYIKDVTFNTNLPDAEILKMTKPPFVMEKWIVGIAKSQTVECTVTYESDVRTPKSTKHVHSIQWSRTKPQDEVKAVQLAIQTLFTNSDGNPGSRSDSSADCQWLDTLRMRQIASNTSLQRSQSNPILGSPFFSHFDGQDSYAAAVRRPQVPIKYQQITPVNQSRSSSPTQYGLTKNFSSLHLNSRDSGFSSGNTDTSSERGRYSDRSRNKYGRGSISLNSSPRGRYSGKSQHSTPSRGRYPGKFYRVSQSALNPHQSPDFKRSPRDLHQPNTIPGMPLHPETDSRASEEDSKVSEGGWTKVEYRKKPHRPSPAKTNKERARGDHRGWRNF
Property measured: pKd
Lab note: report pKd as minus log10 of the concentration in molar units, number only.

*Q* Can you look up the measured pKd of Nc1ccc(-c2cnc3[nH]nc(C(=O)c4c(F)ccc(NS(=O)(=O)Cc5ccccc5)c4F)c3c2)cc1 for me?
*A* 8.02

---

- Subject of test: Mitogen-activated protein kinase kinase kinase 20 (Homo sapiens, UniProt Q9NYL2)
- Measurement description: Binding affinity to wild-type human partial length ZAK (M1 to L331 residues) expressed in bacterial expression system assessed as residual binding level at 100 nM by Kinomescan method relative to control
- Sequence (Q9NYL2 2-800 limits assumed): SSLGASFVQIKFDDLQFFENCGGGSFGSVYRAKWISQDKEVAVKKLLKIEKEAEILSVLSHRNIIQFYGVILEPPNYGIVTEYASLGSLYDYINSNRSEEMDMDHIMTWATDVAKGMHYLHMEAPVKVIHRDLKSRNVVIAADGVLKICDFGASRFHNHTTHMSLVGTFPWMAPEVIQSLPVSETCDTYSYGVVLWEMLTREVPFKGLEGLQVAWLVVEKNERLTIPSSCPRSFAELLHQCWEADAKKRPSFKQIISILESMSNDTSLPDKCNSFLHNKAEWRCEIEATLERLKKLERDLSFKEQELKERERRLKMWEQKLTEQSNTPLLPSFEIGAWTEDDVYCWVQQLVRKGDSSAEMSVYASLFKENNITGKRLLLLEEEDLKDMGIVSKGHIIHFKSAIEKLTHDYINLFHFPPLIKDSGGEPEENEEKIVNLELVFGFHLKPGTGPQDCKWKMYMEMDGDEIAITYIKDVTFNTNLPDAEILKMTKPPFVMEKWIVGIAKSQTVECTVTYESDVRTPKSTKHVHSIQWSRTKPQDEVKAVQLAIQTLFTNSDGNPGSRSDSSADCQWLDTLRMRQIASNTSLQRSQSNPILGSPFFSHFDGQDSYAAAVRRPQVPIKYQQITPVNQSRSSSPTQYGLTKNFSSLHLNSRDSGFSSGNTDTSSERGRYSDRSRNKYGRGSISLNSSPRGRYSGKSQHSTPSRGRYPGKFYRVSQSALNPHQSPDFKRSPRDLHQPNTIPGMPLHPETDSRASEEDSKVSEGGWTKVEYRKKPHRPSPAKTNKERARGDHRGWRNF
Property measured: Activity (%)
The reply should be a number in %, with the unit left off.

*Q* Query (compound): CCCS(=O)(=O)Nc1ccc(F)c(C(=O)c2n[nH]c3ncc(-c4ccc([N+](=O)[O-])cc4)cc23)c1F ; field requested: Activity
*A* 23

---

- Subject of test: Mitogen-activated protein kinase kinase kinase kinase 5 (Homo sapiens, UniProt Q9Y4K4)
- Measurement description: Binding affinity to wild-type human partial length MAP4K5 (M1 to P297 residues) expressed in bacterial expression system assessed as residual binding level at 100 nM by Kinomescan method relative to control
Property measured: Activity (%)
// note: answer is a bare numeric in %

*Q* Any idea what Activity was measured for CCCS(=O)(=O)Nc1ccc(F)c(C(=O)c2n[nH]c3ncc(-c4ccc(C(N)=O)cc4)cc23)c1F ?
*A* 10

*Q* Note, next up: CCCS(=O)(=O)Nc1ccc(F)c(C(=O)c2n[nH]c3ncc(-c4ccc(Cl)c(Cl)c4)cc23)c1F
*A* 100

*Q* Item: CCCS(=O)(=O)Nc1ccc(F)c(C(=O)c2n[nH]c3ncc(-c4cc(Cl)cc(Cl)c4)cc23)c1F
*A* 99

*Q* Same question, CCCS(=O)(=O)Nc1ccc(F)c(C(=O)c2n[nH]c3ncc(-c4ccc(NS(C)(=O)=O)cc4)cc23)c1F this time
*A* 1.1

*Q* Same thing, different compound: CCCCS(=O)(=O)Nc1ccc(F)c(C(=O)c2n[nH]c3ncc(-c4ccc(S(N)(=O)=O)cc4)cc23)c1F
*A* 100

*Q* Please give the result for CCCS(=O)(=O)Nc1ccc(F)c(C(=O)c2n[nH]c3ncc(-c4ccc(OC)cc4Cl)cc23)c1F too.
*A* 53

*Q* Subsequent entry: CS(=O)(=O)Nc1ccc(F)c(C(=O)c2n[nH]c3ncc(-c4ccc(S(N)(=O)=O)cc4)cc23)c1F
*A* 99

*Q* Same for CCCS(=O)(=O)Nc1ccc(F)c(C(=O)c2n[nH]c3ncc(-c4ccc(S(=O)(=O)NC(C)=O)cc4)cc23)c1F
*A* 67

*Q* Okay, and CCCS(=O)(=O)Nc1ccc(F)c(C(=O)c2n[nH]c3ncc(-c4ccccc4C)cc23)c1F ?
*A* 67

*Q* What would you report for CCCS(=O)(=O)Nc1ccc(F)c(C(=O)c2n[nH]c3ncc(-c4ccc(S(=O)(=O)NC)cc4)cc23)c1F ?
*A* 17

*Q* Next compound: CCCS(=O)(=O)Nc1ccc(F)c(C(=O)c2n[nH]c3ncc(-c4ccc(C(C)(C)C)cc4)cc23)c1F
*A* 97

*Q* Please answer likewise for CCCS(=O)(=O)Nc1ccc(F)c(C(=O)c2n[nH]c3ncc(-c4ccccc4Cl)cc23)c1F
*A* 96

*Q* What about CCCS(=O)(=O)Nc1ccc(F)c(C(=O)c2n[nH]c3ncc(-c4cccc(O)c4)cc23)c1F ?
*A* 8

*Q* Next entry: CCCS(=O)(=O)Nc1ccc(F)c(C(=O)c2n[nH]c3ncc(-c4ccc(Cl)c(C(F)(F)F)c4)cc23)c1F
*A* 16

*Q* Now this one: CCCS(=O)(=O)Nc1ccc(F)c(C(=O)c2n[nH]c3ncc(-c4ccc(C(F)(F)F)cc4)cc23)c1F
*A* 76

*Q* How about CCCS(=O)(=O)Nc1ccc(F)c(C(=O)c2n[nH]c3ncc(-c4ccc(F)cc4)cc23)c1F ?
*A* 59

*Q* Also need CCCS(=O)(=O)Nc1ccc(F)c(C(=O)c2n[nH]c3ncc(-c4ccc(Cl)cc4Cl)cc23)c1F , thanks.
*A* 100

*Q* One more compound: CCCS(=O)(=O)Nc1ccc(F)c(C(=O)c2n[nH]c3ncc(-c4cccc(N(C)C)c4)cc23)c1F
*A* 11

*Q* Also CCCS(=O)(=O)Nc1ccc(F)c(C(=O)c2n[nH]c3ncc(-c4ccc(O)cc4)cc23)c1F ?
*A* 9.4

*Q* Now the compound CCCS(=O)(=O)Nc1ccc(F)c(C(=O)c2n[nH]c3ncc(-c4ccc([N+](=O)[O-])cc4)cc23)c1F
*A* 61

*Q* # repeat for CCCS(=O)(=O)Nc1ccc(F)c(C(=O)c2n[nH]c3ncc(-c4ccc(S(N)(=O)=O)cc4F)cc23)c1F
*A* 77

The reported numbers originate from ChEMBL document CHEMBL4811244.
